Quick reference: pEC50 of the listed items.
system: FXR-LBD (Farnesoid X Receptor) (Homo sapiens)
Construct: Add 5 μl of 4×FXR-LBD to 384 well assay plates
Sequence (Q96RI1 262-486 limits assumed): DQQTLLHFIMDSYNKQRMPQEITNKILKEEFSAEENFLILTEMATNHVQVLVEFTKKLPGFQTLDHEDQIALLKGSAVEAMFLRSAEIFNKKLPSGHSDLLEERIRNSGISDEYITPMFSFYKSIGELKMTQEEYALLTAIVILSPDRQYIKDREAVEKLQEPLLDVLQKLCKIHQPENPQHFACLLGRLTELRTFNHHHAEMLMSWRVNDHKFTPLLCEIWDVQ
assaySummary: LanthaScreen TR-FRET Farnesoid X Receptor Coactivator Assay
testSettings: TR-FRET ratio 520 nm/495 nm; 10 doses, 3-fold serial dilution; GW4064 as positive control
pEC50: −log10 of the molar value.

compoundStructureString	system	pEC50
CON=C1C(C)=C[C@H]2C(=O)O[C@H]3C[C@@H](C/C=C(\C)[C@@H](O[C@H]4C[C@H](OC)[C@@H](O)[C@H](C)O4)[C@@H](C)/C=C/C=C4\CO[C@H]1[C@@]42O)O[C@@]1(C=C[C@H](C)[C@@H](C2CCCCC2)O1)C3	FXR-LBD (Farnesoid X Receptor) (Homo sapiens)	6.00 to 6.52
CO[C@H]1C[C@H](O[C@@H]2/C(C)=C/C[C@@H]3C[C@@H](C[C@]4(C=C[C@H](C)[C@@H](C5CCCCC5)O4)O3)OC(=O)[C@@H]3C=C(C)[C@@H](O)[C@H]4OC/C(=C\C=C\[C@@H]2C)[C@]43O)O[C@@H](C)[C@@H]1O	FXR-LBD (Farnesoid X Receptor) (Homo sapiens)	6.52 to 7.00
CO[C@H]1C[C@H](O[C@H]2[C@H](C)O[C@@H](O[C@@H]3/C(C)=C/C[C@@H]4C[C@@H](C[C@]5(C=C[C@H](C)[C@@H](C6CCCCC6)O5)O4)OC(=O)[C@@H]4C=C(C)C(=NO)[C@H]5OC/C(=C\C=C\[C@@H]3C)[C@]54O)C[C@@H]2OC)O[C@@H](C)[C@@H]1O	FXR-LBD (Farnesoid X Receptor) (Homo sapiens)	7.00 to 8.00

Q: For the molecule `CO[C@H]1C[C@H](O[C@@H]2/C(C)=C/C[C@@H]3C[C@@H](C[C@]4(C=C[C@H](C)[C@@H](C5CCCCC5)O4)O3)OC(=O)[C@@H]3C=C(C)C(=NO)[C@H]4OC/C(=C\C=C\[C@@H]2C)[C@]43O)O[C@@H](C)[C@@H]1O` , give its measured pEC50 value.
A: 7.00 to 8.00
